Recorded measurements of IC50, one per entry
Biological target: human CXCR4 receptor (Homo sapiens, UniProt P61073)
Construct: expressed in transfected cells
Sequence (P61073 whole entry): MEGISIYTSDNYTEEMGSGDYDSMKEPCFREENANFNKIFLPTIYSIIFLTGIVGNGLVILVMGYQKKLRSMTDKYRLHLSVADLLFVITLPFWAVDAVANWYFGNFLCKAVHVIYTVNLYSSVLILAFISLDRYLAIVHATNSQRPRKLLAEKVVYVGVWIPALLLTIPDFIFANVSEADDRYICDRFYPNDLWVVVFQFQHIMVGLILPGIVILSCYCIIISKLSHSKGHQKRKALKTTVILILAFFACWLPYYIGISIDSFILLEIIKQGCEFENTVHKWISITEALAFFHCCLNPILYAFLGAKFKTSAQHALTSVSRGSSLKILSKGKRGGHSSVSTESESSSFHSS
Assay: Measurement of intracellular Ca+2 responses (FLIPR), antagonism of the SDF-1α response
Assay type: cell-based
Settings: HEK-Gqi5 cells stably expressing human CXCR4; Fluo-4 FLIPR; antagonism of SDF-1α 1.9 nM (EC65); values in nM
Phrase the answer as number then unit, nothing more needed.

Below, 3 compounds whose answers are already recorded.
INSERT INTO measurements (compound, property_measured, result) VALUES
  ('COc1cc2nc(NCC3CNC3)nc(NC3CCN(Cc4c(OCCN(C)C)cccc4N(C)C)CC3)c2cc1OC', 'IC50', '56 nM'),
  ('COc1cccc(N(C)C)c1CN1CCC(Nc2nc(NCC3CNC3)nc3ccccc23)CC1', 'IC50', '155 nM'),
  ('COc1cc2nc(NCc3ncco3)nc(NC3CCN(Cc4c(OCCN(C)C)cccc4N(C)C)CC3)c2cc1OC', 'IC50', '47 nM');

Provide IC50, tested on human CXCR4 receptor (Homo sapiens, UniProt P61073), for `COc1cc2nc(NCCc3nccs3)nc(NC3CCN(Cc4c(OCCN(C)C)cccc4N(C)C)CC3)c2cc1OC` . 47 nM

Provide IC50, tested on human CXCR4 receptor (Homo sapiens, UniProt P61073), for `COc1cccc(N(C)C)c1CN1CCC(Nc2nc(NC[C@@H]3CCNC3)nc3ccccc23)CC1` . 129 nM

Provide IC50, tested on human CXCR4 receptor (Homo sapiens, UniProt P61073), for `COc1cccc(N(C)C)c1CN1CCC(Nc2nc(NCCCN)nc3ccccc23)CC1` . 130 nM

Provide IC50, tested on human CXCR4 receptor (Homo sapiens, UniProt P61073), for `COc1cc2nc(NCc3cc[nH]n3)nc(NC3CCN(Cc4c(OCCN(C)C)cccc4N(C)C)CC3)c2cc1OC` . 32 nM

Provide IC50, tested on human CXCR4 receptor (Homo sapiens, UniProt P61073), for COc1cccc(N(C)C)c1CN1CCC(Nc2nc(NCCC3CCCN3C)nc3ccccc23)CC1 (stereo not drawn) . 140 nM

====

Molecular target: human CXCR4 receptor (Homo sapiens)
Construct: expressed in transfected cells
Assay: Measurement of intracellular Ca+2 responses (FLIPR), antagonism of the SDF-1α response
Format: cell-based
Conditions: percent antagonism of SDF-1α 1.9 nM (EC65) response; HEK-Gqi5 human CXCR4 cells; value in brackets
CXCR4 (% Inh) strictly under 90% means Satisfied; at 90% or over means Not satisfied.

Please check: CXCR4 (% Inh) for CCN(CC)CCCNc1nc(NC2CCN(Cc3ccccc3N3CCCCC3)CC2)c2cc(OC)c(OC)cc2n1 [Compound 50] , strictly under 90% or not? Satisfied

Please check: CXCR4 (% Inh) for COc1cccc(N(C)C)c1CN1CCC(Nc2nc(NCCc3c[nH]cn3)nc3ccccc23)CC1 [Compound 119] , strictly under 90% or not? Not satisfied

Please check: CXCR4 (% Inh) for COc1cc2nc(NCc3cnco3)nc(NC3CCN(Cc4c(OCCN(C)C)cccc4N(C)C)CC3)c2cc1OC [Compound 212] , strictly under 90% or not? Not satisfied

====

Recorded measurements of IC50, one per entry
Molecular target: human CXCR4 receptor (Homo sapiens, UniProt P61073)
Construct: expressed in transfected cells
Assay: Measurement of intracellular Ca+2 responses (FLIPR), antagonism of the SDF-1α response
Assay type: cell-based
Details: HEK-Gqi5 cells stably expressing human CXCR4; Fluo-4 FLIPR; antagonism of SDF-1α 1.9 nM (EC65); values in nM

INSERT INTO assay_data (smiles_notation, property_measured, result) VALUES
  ('CCNCCNc1nc(NC2CCN(Cc3c(OC)cccc3N(C)C)CC2)c2ccccc2n1', 'IC50', '771 nM'),
  ('CCN(CC)CCNc1nc(NC2CCN(Cc3ccccc3N(C)C)CC2)c2ccccc2n1', 'IC50', '800 nM'),
  ('CCN(CC)CCCNc1nc(NC2CCN(Cc3ccccc3N(C)C)CC2)c2cc(OC)c(OC)cc2n1', 'IC50', '270 nM'),
  ('CCN(CC)CCCNc1nc(NC2CCN(Cc3c(OC)cccc3N(C)C)CC2)c2ccccc2n1', 'IC50', '150 nM'),
  ('COc1cccc(N(C)C)c1CN1CCC(Nc2nc(NCCNC(C)=O)nc3ccccc23)CC1', 'IC50', '762 nM'),
  ('COc1cc2nc(NCc3cn(C)cn3)nc(NC3CCN(Cc4c(OCCN(C)C)cccc4N(C)C)CC3)c2cc1OC', 'IC50', '73 nM');

Provide IC50, tested on human CXCR4 receptor (Homo sapiens, UniProt P61073), for `COc1cc2nc(NCCCN)nc(NC3CCN(Cc4c(OC)cccc4N(C)C)CC3)c2cc1OC` . 105 nM

Provide IC50, tested on human CXCR4 receptor (Homo sapiens, UniProt P61073), for `COc1cc2nc(NCCCN)nc(NC3CCN(Cc4c(OCCN(C)C)cccc4N(C)C)CC3)c2cc1OC` . 47 nM

====

Molecular target: human CXCR4 receptor (Homo sapiens, UniProt P61073)
Construct: expressed in transfected cells
Test: Measurement of intracellular Ca+2 responses (FLIPR), antagonism of the SDF-1α response
Format: cell-based
Conditions: percent antagonism of SDF-1α 1.9 nM (EC65) response; HEK-Gqi5 human CXCR4 cells; value in brackets
Property Measured: CXCR4 (% Inh) (%)
Reply numerically in %, unit not repeated.

Below, 4 compounds whose answers are already recorded.
INSERT INTO assay_data (compound, property_measured, value_unit, numeric_readout) VALUES
  ('COc1cccc(N(C)C)c1CN1CCC(Nc2nc(NCCCO)nc3ccccc23)CC1', 'CXCR4 (% Inh)', '%', 100),
  ('COc1cc2nc(NCCCN(C)C)nc(NC3CCN(Cc4c(OCCN(C)C)cccc4N(C)C)CC3)c2cc1OC', 'CXCR4 (% Inh)', '%', 94),
  ('COc1cccc(N(C)C)c1CN1CCC(Nc2nc(NCC3CCN(C(=O)OC(C)(C)C)C3)nc3ccccc23)CC1 (stereo not drawn)', 'CXCR4 (% Inh)', '%', 73),
  ('COc1cc2nc(NCC3CNC3)nc(NC3CCN(Cc4c(OCCN(C)C)cccc4N(C)C)CC3)c2cc1OC', 'CXCR4 (% Inh)', '%', 96);

Provide CXCR4 (% Inh), tested on human CXCR4 receptor (Homo sapiens, UniProt P61073), for `CCN(CC)CCCNc1nc(NC2CCN(Cc3c(OC)cccc3N(C)C)CC2)c2ccccc2n1` . 100

Provide CXCR4 (% Inh), tested on human CXCR4 receptor (Homo sapiens, UniProt P61073), for `COc1cc2nc(NCc3cncs3)nc(NC3CCN(Cc4c(OCCN(C)C)cccc4N(C)C)CC3)c2cc1OC` . 85

Provide CXCR4 (% Inh), tested on human CXCR4 receptor (Homo sapiens, UniProt P61073), for `CCN(CC)CCCCNc1nc(NC2CCN(Cc3c(OC)cccc3N(C)C)CC2)c2ccccc2n1` . 93

Provide CXCR4 (% Inh), tested on human CXCR4 receptor (Homo sapiens, UniProt P61073), for `COc1cc2nc(NCc3cncn3C)nc(NC3CCN(Cc4c(OCCN(C)C)cccc4N(C)C)CC3)c2cc1OC` . 98

Provide CXCR4 (% Inh), tested on human CXCR4 receptor (Homo sapiens, UniProt P61073), for COc1cccc(N(C)C)c1CN1CCC(Nc2nc(NCCC3CCCN3C)nc3ccccc23)CC1 (stereo not drawn) . 100

====

Biological target: human CXCR4 receptor (Homo sapiens, UniProt P61073)
Construct: expressed in transfected cells
Experiment: Measurement of intracellular Ca+2 responses (FLIPR), antagonism of the SDF-1α response
Type: cell-based
Conditions: HEK-Gqi5 cells stably expressing human CXCR4; Fluo-4 FLIPR; antagonism of SDF-1α 1.9 nM (EC65); values given in μM
Recorded measurements of IC50, one per entry
Reply numerically in µM, unit not repeated.

Below, 4 compounds whose answers are already recorded.
INSERT INTO assay_data (compound, property_measured, value_unit, numeric_readout) VALUES
  ('CCOP(=O)(CCCNc1nc(NC2CCN(Cc3c(OC)cccc3N(C)C)CC2)c2ccccc2n1)OCC', 'IC50', 'µM', 1.6),
  ('COc1cccc(N(C)C)c1CN1CCC(Nc2nc(NCCCN(C)C)nc3ccc(Br)cc23)CC1', 'IC50', 'µM', 1.2),
  ('COc1cccc(N(C)C)c1CN1CCC(Nc2nc(N3CCN(C)CC3)nc3ccccc23)CC1', 'IC50', 'µM', 1.2),
  ('COc1cccc(N(C)C)c1CN1CCC(Nc2nc(NC[C@H]3CCN(C(=O)OC(C)(C)C)C3)nc3ccccc23)CC1', 'IC50', 'µM', 2.2);

Please give the documented IC50 of `CCN(CC)C(=O)CCNc1nc(NC2CCN(Cc3ccccc3N(C)C)CC2)c2cc(OC)c(OC)cc2n1` 2.4

Please give the documented IC50 of `CCN(CC)CCCNc1nc(NC2CCN(Cc3ccccc3N3CCCCC3)CC2)c2cc(OC)c(OC)cc2n1` 6.7

Please give the documented IC50 of `COc1cccc(N(C)C)c1CN1CCC(Nc2nc(NCC(F)(F)F)nc3ccccc23)CC1` 4.3

Please give the documented IC50 of `COc1cccc(N(C)C)c1CN1CCC(Nc2nc(NC[C@@H]3CCN(C(=O)OC(C)(C)C)C3)nc3ccccc23)CC1` 2.1

Please give the documented IC50 of COc1cccc(N(C)C)c1CN1CCC(Nc2nc(N3CCCC(C(N)=O)C3)nc3ccccc23)CC1 (stereo not shown) 4.9
